# Test target: T1, human CC chemokine receptor 4 (CCR4) on CCR4/EL-4 cells (human, UniProt P51679 1-360)
# T1 construct: also called hCCR4; human CCR4-high-expressing cell
# T1 sequence: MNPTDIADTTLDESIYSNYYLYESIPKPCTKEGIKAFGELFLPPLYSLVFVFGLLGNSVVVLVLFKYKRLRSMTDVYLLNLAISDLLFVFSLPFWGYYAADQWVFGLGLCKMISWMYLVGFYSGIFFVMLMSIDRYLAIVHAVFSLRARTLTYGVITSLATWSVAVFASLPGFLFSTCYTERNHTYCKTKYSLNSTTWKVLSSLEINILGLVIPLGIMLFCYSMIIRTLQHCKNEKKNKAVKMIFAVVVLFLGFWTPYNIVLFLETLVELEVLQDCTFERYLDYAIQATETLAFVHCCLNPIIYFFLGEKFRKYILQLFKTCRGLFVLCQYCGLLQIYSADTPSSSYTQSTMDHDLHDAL
# Protocol: flow cytometry on CCR4/EL-4 cells, antibody at 10 µg/ml
Measured metric: binding result

| Binder | Recorded value |
| --- | --- |
| anti-CCR4 CDR-grafted antibody Ga10LV0 (antibody, human IgG1, V domains shown, CDR alone grafted; Tested as COS-7 supernatant and as purified antibody from YB2/0; also called pKANTEX2160Ga10LV0; pKM2160Ga10LV0) VH: EVQLVESGGDLVQPGRSLRLSCAASGFIFSNYGMSWVRQAPGKGLEWVATISSASTYSYYPDSVKGRFTISRDNAKNSLYLQMNSLRVEDTALYYCARHSDGNFAFGYWGQGTLVTVSS VL: DIVMTQSPLSLPVTPGEPASISCRSSRNIVHINGDTYLEWYLQKPGQSPQLLIYKVSNRFSGVPDRFSGSGSGTDFTLKISRVEAEDVGVYYCFQGSLLPWTFGQGTKVEIK | binds |
| anti-CCR4 CDR-grafted antibody Ga10LV1 (antibody, human IgG1, V domains shown, Tested as COS-7 supernatant and as purified antibody from YB2/0; also called pKM2160Ga10LV1) VH: EVQLVESGGDLVQPGRSLRLSCAASGFIFSNYGMSWVRQAPGKGLEWVATISSASTYSYYPDSVKGRFTISRDNAKNSLYLQMNSLRVEDTALYYCARHSDGNFAFGYWGQGTLVTVSS VL: DVVMTQSPLSLPVTPGEPASISCRSSRNIVHINGDTYLEWYLQKPGQSPQLLIYKVSNRFSGVPDRFSGSGSGTDFTLKISRVEAEDVGVYYCFQGSLLPWTFGQGTKVEIK | binds |
| anti-CCR4 CDR-grafted antibody Ga13LV3 (antibody, human IgG1, V domains shown, Tested as COS-7 supernatant and as purified antibody from YB2/0; also called pKM2160Ga13LV3) VH: EVQLVESGGDLVQPGRSLRLSCAASGFIFSNYGMSWVRQAPDKRLEWVATISSASTYSYYPDSVKGRFTISRDNAKNSLYLQMNSLRVEDTALYYCGRHSDGNFAFGYWGQGTLVTVSS VL: DVLMTQSPLSLPVTPGEPASISCRSSRNIVHINGDTYLEWYLQKPGQSPQLLIYKVSNRFSGVPDRFSGSGSGTDFTLKISRVEAEDVGVYYCFQGSLLPWTFGQGTKVEIK | binds |
